For each of the binders below, state its Phage binding ELISA signal, Anti-PSMA Fab.
- Assay System: T1, PSMA Fab (biotinylated (site not stated))
- T1 construct: also called Anti-PSMA Fab; 006 PSMA Fab
- Test Details: clonal phage ELISA on biotinylated PSMA Fab captured on neutravidin plates, anti-M13 HRP detection;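 note: crude clonal phage supernatants tested, before phage were added, wells were pretreated with PSMA antigen in blocking buffer or with blocking buffer only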
Where no end group is shown, it is not given here.
Give bare numbers.

**Q:** Assign Phage binding ELISA signal, Anti-PSMA Fab to the following record: VMKWCTPSWMCEHI (cysteine pairing not given here; also: displayed on phage as pIII fusion, linker and pIII sequence not given here, Clonal phage of the peptide-180 library; not shown: fused to pIII of the bacteriophage) [Phage-2605]
**A:** 1.03

// next entry
**Q:** Please give measured Phage binding ELISA signal, Anti-PSMA Fab of the following entry: VWQLCIPPWMCQFE (cysteine pairing not given here; also: displayed on phage as pIII fusion, linker and pIII sequence not given here, Clonal phage of the peptide-180 library; not shown: fused to pIII of the bacteriophage) [Phage-2604]
**A:** 1.03
